System: PDC tumor spheroids with HUVEC/MSC, viability
protocol summary: Anticancer human tumor 439559-082-T-J2-PDC patient-derived colon adenocarcinoma cell line growth inhibition [TAK]
particulars: second compound 3 µM; first compound 0.1 µM; hits give low values
I'd be grateful if you could share measured viability, T/C for these entries.

A selection of reference data follows.
{"compound": "CC(C)(C)c1nc(-c2cccc(NS(=O)(=O)c3c(F)cccc3F)c2F)c(-c2ccnc(N)n2)s1 + CC(C)NCC(C(=O)N1CCN(c2ncnc3c2C(C)CC3O)CC1)c1ccc(Cl)cc1", "result value": "107%"}
{"compound": "Cc1nc(NC(=O)N2CCCC2C(N)=O)sc1-c1ccnc(C(C)(C)C(F)(F)F)c1 (stereo unspecified) + CC(C)NCC(C(=O)N1CCN(c2ncnc3c2C(C)CC3O)CC1)c1ccc(Cl)cc1", "result value": "102%"}

I have 3 compounds here; please give me viability, T/C for each one.
1. CC(C)CC(NC(=O)CNC(=O)c1cc(Cl)ccc1Cl)B1OC(=O)CC(CC(=O)O)(C(=O)O)O1 (stereo unspecified) + CC(C)NCC(C(=O)N1CCN(c2ncnc3c2C(C)CC3O)CC1)c1ccc(Cl)cc1
2. COc1c(OCCCN2CCOCC2)ccc2c3n(c(=NC(=O)c4cnc(N)nc4)nc12)CCN3 + CC(C)NCC(C(=O)N1CCN(c2ncnc3c2C(C)CC3O)CC1)c1ccc(Cl)cc1
3. CC(C)n1nc(-c2ccc3oc(N)nc3c2)c2c(N)ncnc21 + CC(C)NCC(C(=O)N1CCN(c2ncnc3c2C(C)CC3O)CC1)c1ccc(Cl)cc1

Reply:
1. 58.4%
2. 71.3%
3. 71.8%

Ask: Which viability, T/C reading was recorded for the compound COC1CC2CCC(C)C(O)(O2)C(=O)C(=O)N2CCCCC2C(=O)OC(C(C)CC2CCC(OCCO)C(OC)C2)CC(=O)C(C)C=C(C)C(O)C(OC)C(=O)C(C)CC(C)C=CC=CC=C1C (stereo unspecified) + CC(C)NCC(C(=O)N1CCN(c2ncnc3c2C(C)CC3O)CC1)c1ccc(Cl)cc1 ?
Reply: 77.3%

---

Tested on: PDC tumor spheroids with HUVEC/MSC, viability
protocol summary: Anticancer human tumor 439559-082-T-J2-PDC cell line growth inhibition [TAK];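 further: spheroids exposed to drugs for seven days before readout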
particulars: second compound 0.949 µM; first compound 0.1 µM; hits give low values
I'd be grateful if you could share measured viability, T/C for these entries.
Answers are plain numbers, in %.

A selection of reference data follows.
{"compound": "COC1CC2CCC(C)C(O)(O2)C(=O)C(=O)N2CCCCC2C(=O)OC(C(C)CC2CCC(OCCO)C(OC)C2)CC(=O)C(C)C=C(C)C(O)C(OC)C(=O)C(C)CC(C)C=CC=CC=C1C (stereo unspecified) + CC(C)NCC(C(=O)N1CCN(c2ncnc3c2C(C)CC3O)CC1)c1ccc(Cl)cc1", "unit info": "%", "viability, T/C": 79.8}
{"compound": "CC(C)(C)c1nc(-c2cccc(NS(=O)(=O)c3c(F)cccc3F)c2F)c(-c2ccnc(N)n2)s1 + CC(C)NCC(C(=O)N1CCN(c2ncnc3c2C(C)CC3O)CC1)c1ccc(Cl)cc1", "unit info": "%", "viability, T/C": 113}
{"compound": "CC(C)n1nc(-c2ccc3oc(N)nc3c2)c2c(N)ncnc21 + CC(C)NCC(C(=O)N1CCN(c2ncnc3c2C(C)CC3O)CC1)c1ccc(Cl)cc1", "unit info": "%", "viability, T/C": 68}
{"compound": "COc1c(OCCCN2CCOCC2)ccc2c3n(c(=NC(=O)c4cnc(N)nc4)nc12)CCN3 + CC(C)NCC(C(=O)N1CCN(c2ncnc3c2C(C)CC3O)CC1)c1ccc(Cl)cc1", "unit info": "%", "viability, T/C": 72.4}
{"compound": "CC(C)CC(NC(=O)CNC(=O)c1cc(Cl)ccc1Cl)B1OC(=O)CC(CC(=O)O)(C(=O)O)O1 (stereo unspecified) + CC(C)NCC(C(=O)N1CCN(c2ncnc3c2C(C)CC3O)CC1)c1ccc(Cl)cc1", "unit info": "%", "viability, T/C": 61.1}

Ask: Which viability, T/C reading was recorded for the compound Cc1nc(NC(=O)N2CCCC2C(N)=O)sc1-c1ccnc(C(C)(C)C(F)(F)F)c1 (stereo unspecified) + CC(C)NCC(C(=O)N1CCN(c2ncnc3c2C(C)CC3O)CC1)c1ccc(Cl)cc1 ?
Reply: 102
